assay: Ratio of drug concentration in spinal cord to plasma in STZ-induced diabetic peripheral neuropathic mechanical allodynia in overnight fasted Sprague-Dawley rat at 1 mg/kg, po measured at 5.5 hrs post dose; assay type: ADME, organism-based
Measurement kind: Kp at 5.5 h
Answers are plain numbers.

Req: Report Kp at 5.5 h for CC(=O)Nc1cc(-c2ccc(OC[C@@H](N)CC(C)C)c(F)c2)ccn1 please.
Resp: 0.8

----------
biological target: UniProtKB Q2M2I8; assay: Inhibition of bacterially expressed GST-Xa-tagged human AAK1 using 5-FAM-labelled Aha-KEEQSQITSQVTGQIGWR-NH2 peptide as substrate incubated for 3 hrs in presence of ATP by electrophoretic analysis
Could you mark each record true if its IC50 falls strictly under 800 pM, and false if it equals or exceeds it?

> print(dat)
                                   compound  target.or.system  class.assignment
1  COC(=O)Nc1cc(-c2cnc(OC[C@@](C)(N)CC(C)C)c(C)c2)ccn1  UniProtKB Q2M2I8             false
2  COC(=O)Nc1cc(-c2ccc(OC[C@@](C)(N)CC(C)C)c(Cl)n2)ccn1  UniProtKB Q2M2I8              true
3  CC(=O)Nc1cc(-c2ccc(OC[C@@](C)(N)CC(C)C)c(C(F)(F)F)c2)ccn1  UniProtKB Q2M2I8              true
4  COC(=O)Nc1cc(-c2cc(Cl)c(OC[C@@](C)(N)CC(C)C)cn2)ccn1  UniProtKB Q2M2I8             false
5  COC(=O)Nc1cc(-c2ccc(OC[C@@](C)(N)CC(C)C)c(F)c2)ccn1  UniProtKB Q2M2I8             false

Read the next record carefully.
Req: Is it true that IC50 reported for CC(=O)Nc1cc(-c2ccc(OC[C@@](C)(N)CC(C)C)c(C(F)F)c2)ccn1 is less than 800 pM?
Resp: true

----------
experiment: Protein binding in mouse brain assessed as unbound fraction at 1 uM measured after 4 hrs by LC/MS/MS analysis; assay type: ADME, tissue-based
Measurement kind: fraction unbound at 4 h, 1 µM

Req: # get_value(readout='fraction unbound at 4 h, 1 µM', item= CC(C)C[C@](C)(N)COc1cnc(-c2ccnc(C(F)F)c2)cc1C(F)F )
Resp: 0.018

----------
Quick record: IC50, Cytochrome P450 2D6 (Homo sapiens, UniProt P10635).

> print(dat)
                               smiles.entry                          target.or.system  measurement.kind  experimental.value
1  COC(=O)Nc1cc(-c2cnc(OC[C@@](C)(N)CC(C)C)c(C)c2)ccn1  Cytochrome P450 2D6 (Homo sapiens, UniProt P10635)              IC50             > 20 µM

Proceeding to the next compound to report its IC50.
Req: What IC50 value was documented for this compound, COC(=O)Nc1cc(-c2ccc(OC[C@@](C)(N)CC(C)C)c(C)n2)ccn1 ?
Resp: > 20 µM

----------
molecular target: AP2-associated protein kinase 1 (Homo sapiens); test: Inhibition of full length human AAK1 expressed in HEK293F cells assessed as suppression of AP2 phosphorylation measured after 3 hrs by Western blot analysis based cellular assay; type: cell-based
Sequence (Q2M2I8 whole entry): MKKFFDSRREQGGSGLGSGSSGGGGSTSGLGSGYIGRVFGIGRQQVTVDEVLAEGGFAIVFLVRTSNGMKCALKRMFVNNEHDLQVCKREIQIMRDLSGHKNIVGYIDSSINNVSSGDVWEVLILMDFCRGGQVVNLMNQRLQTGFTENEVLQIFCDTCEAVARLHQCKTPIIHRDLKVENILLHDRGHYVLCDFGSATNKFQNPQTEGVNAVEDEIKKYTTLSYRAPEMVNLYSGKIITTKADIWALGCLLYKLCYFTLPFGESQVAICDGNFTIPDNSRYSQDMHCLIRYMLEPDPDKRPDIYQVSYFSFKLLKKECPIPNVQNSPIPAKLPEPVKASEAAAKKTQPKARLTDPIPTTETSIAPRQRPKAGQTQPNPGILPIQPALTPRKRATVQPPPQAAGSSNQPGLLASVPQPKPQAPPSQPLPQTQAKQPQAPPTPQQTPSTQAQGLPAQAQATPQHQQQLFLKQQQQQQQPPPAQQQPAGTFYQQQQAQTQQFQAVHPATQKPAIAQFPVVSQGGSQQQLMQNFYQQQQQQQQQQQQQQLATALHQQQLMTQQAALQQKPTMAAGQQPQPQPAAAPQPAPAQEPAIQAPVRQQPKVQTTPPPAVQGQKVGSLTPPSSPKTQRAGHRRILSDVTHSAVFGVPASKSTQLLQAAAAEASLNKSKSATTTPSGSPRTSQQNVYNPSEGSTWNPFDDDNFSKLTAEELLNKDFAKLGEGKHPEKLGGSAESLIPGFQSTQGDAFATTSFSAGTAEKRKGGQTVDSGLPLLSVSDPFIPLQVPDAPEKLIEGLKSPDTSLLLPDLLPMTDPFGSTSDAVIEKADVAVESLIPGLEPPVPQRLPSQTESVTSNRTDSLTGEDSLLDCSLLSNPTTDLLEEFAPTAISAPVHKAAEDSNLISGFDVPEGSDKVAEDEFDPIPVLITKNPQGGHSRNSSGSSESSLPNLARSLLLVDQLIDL
Field: IC50. Provide a value for each of the molecules that follow.
Numbers only, in nM.

Below: 3 molecules and their reported IC50.
> print(dat)
                               smiles.entry  experimental.value
1  Cc1cc(-c2cc(C(F)F)c(OC[C@@](C)(N)CC(C)C)cn2)ccn1                 0.9
2  CC(C)C[C@](C)(N)COc1cnc(-c2ccnc(Cl)c2)cc1C(F)F                 2.7
3  CC(=O)Nc1cc(-c2ccc(OC[C@@](C)(N)CC(C)C)c(C(F)F)c2)ccn1                 0.5

Count: 6. Required value per item: IC50.
1. COC(=O)Nc1cc(-c2ccc(OC[C@@](C)(N)CC(C)C)c(OC(F)(F)F)c2)ccn1
2. CC(=O)Nc1cc(-c2ccc(OC[C@@](C)(N)CC(C)C)c(C#N)c2)ccn1
3. CC(=O)Nc1cc(-c2ccc(OC[C@@H](N)CC(C)C)c(F)c2)ccn1
4. COC(=O)Nc1cc(-c2ccc(OC[C@@](C)(N)CC(C)C)c(CO)c2)ccn1
5. COC(=O)Nc1cc(-c2ccc(OC[C@@](C)(N)CC(C)C)c(C)n2)ccn1
6. COC(=O)Nc1cc(-c2cc(C)c(OC[C@@](C)(N)CC(C)C)cn2)ccn1

Resp:
0.2
0.6
1.6
3.9
2.4
12

Record IC50 for all entries; do not skip any.
1. COC(=O)Nc1cc(-c2ccc(OC[C@@H](N)CC(C)C)c(-c3ccno3)c2)ccn1
2. COC(=O)Nc1cc(-c2ccc(OC[C@@](C)(N)CC(C)C)c(C#N)c2)ccn1
3. CC(C)C[C@](C)(N)COc1cnc(-c2ccnc(C(F)F)c2)cc1C(F)F
4. COC(=O)Nc1cc(-c2ccc(OC[C@@](C)(N)CC(C)C)c(C3CC3)c2)ccn1
5. CC(=O)Nc1cc(-c2ccc(OC[C@@H](N)CC(C)C)c(C(F)(F)F)c2)ccn1
6. CC(=O)Nc1cc(-c2ccc(OC[C@@H](N)CC(C)C)c(Cl)c2)ccn1
7. Cc1cc(-c2cc(Cl)c(OC[C@@](C)(N)CC(C)C)cn2)ccn1
8. COC(=O)Nc1cc(-c2ccc(OC[C@@](C)(N)CC(C)C)c(C(F)(F)F)c2)ccn1

Resp:
[4.1, 0.8, 0.5, 1, 0.75, 0.2, 1.9, 1.5]

----------
target: AP2-associated protein kinase 1 (Homo sapiens); assay: Inhibition of full length human AAK1 expressed in HEK293F cells assessed as suppression of AP2 phosphorylation measured after 3 hrs by Western blot analysis based cellular assay; assay type: cell-based
Consider the following compounds; for each one, report its log10 IC50.
// stored as log10 of IC50 expressed in nM

> print(dat)
                                   compound  measurement.kind  experimental.value
1  CC(=O)Nc1cc(-c2cc(F)c(OC[C@@H](N)CC(C)C)c(C(F)(F)F)c2)ccn1        log10 IC50                0.68
2  COC(=O)Nc1cc(-c2ccc(OC[C@@](C)(N)CC(C)C)c(Cl)n2)ccn1        log10 IC50                0.08
3  CC(=O)Nc1cc(-c2ccc(OC[C@@H](N)CC(C)C)c(C)c2)ccn1        log10 IC50                0.04
4  COC(=O)Nc1cc(-c2cnc(OC[C@@](C)(N)CC(C)C)c(C)c2)ccn1        log10 IC50                0.53
5  CC(=O)Nc1cc(-c2ccc(OC[C@@](C)(N)CC(C)C)c(OC(F)(F)F)c2)ccn1        log10 IC50                0.20

Provide log10 IC50 for all items below, preserving their order.
1. CC(=O)Nc1cc(-c2ccc(OC[C@@](C)(N)CC(C)C)c(C(F)(F)F)c2)ccn1
2. CC(=O)Nc1cc(-c2ccc(OC[C@@H](N)CC(C)C)cc2)ccn1
3. CC(=O)Nc1cc(-c2ccc(OC[C@@H](N)CC(C)C)c(C#N)c2)ccn1
4. COC(=O)Nc1cc(-c2ccc(OC[C@@](C)(N)CC(C)C)c(C)c2)ccn1 (racemic)

Resp:
1. -0.40
2. 0.91
3. -0.30
4. -0.10

Hey, quick one: what's log10 IC50 for each of these?
1. COC(=O)Nc1cc(-c2cnc(OC[C@@](C)(N)CC(C)C)c(Cl)c2)ccn1
2. Cc1cc(-c2ccnc(C(F)F)c2)ncc1OC[C@@](C)(N)CC(C)C
3. CC(=O)Nc1cc(-c2cc(F)c(OC[C@@H](N)CC(C)C)cc2F)ccn1

Resp:
0.62
1.08
0.83

Working through the 5 compounds below one at a time, give log10 IC50 for each.
1. COC(=O)Nc1cc(-c2ccc(OC[C@@](C)(N)CC(C)C)c(C(F)F)c2)ccn1
2. CC(=O)Nc1cc(-c2ccc(OC[C@@H](N)CC(C)C)c(OC(F)(F)F)c2)ccn1
3. COc1cc(-c2ccnc(NC(C)=O)c2)ccc1OC[C@@H](N)CC(C)C
4. COC(=O)Nc1cc(-c2cc(C(F)(F)F)c(OC[C@@](C)(N)CC(C)C)cn2)ccn1
5. COC(=O)Nc1cc(-c2ccc(OC[C@@](C)(N)CC(C)C)c(C)c2C)ccn1 (racemic)

Resp:
[-0.22, -0.35, 0.58, -0.40, 0.99]

Dear reader, for each entry below, please note its log10 IC50.
1. CC(=O)Nc1cc(-c2cc(F)c(OC[C@@H](N)CC(C)C)c(Cl)c2)ccn1
2. COC(=O)Nc1cc(-c2ccc(OC[C@@](C)(N)CC(C)C)c(Cl)c2)ccn1 (racemic)
3. CC(=O)Nc1cc(-c2ccc(OC[C@@](C)(N)CC(C)C)c(F)c2)ccn1

Resp:
[0.83, 0.15, 0.57]
